Tested on: NCI/ADR-RES ovarian
assay-summary: NCI-60 one-dose screen, 48 h (100 = growth as untreated, 0 = no growth, -100 = all killed)
reported-conditions: 10 µM unless noted
About 83,000 compounds went through this panel and 20% of them were active in at least one assay; those are over-represented in the sample as a whole.
Tick fulfilled if growth is 90% or greater. Tick not fulfilled if growth is less than 90%.

Solved entries:
>>> class_assignment("Cc1ccc([C@H]2c3[nH]c4ccccc4c3C[C@H]3C(=O)N(CCCCCCC(=O)NO)CC(=O)N23)s1")
"fulfilled"
>>> class_assignment("Cc1ccc2c(n1)C(=O)C(Cl)=C(Nc1ccc(C)c(C)c1)C2=O")
"not fulfilled"
>>> class_assignment("CC(Nc1ncnc2ccc(-c3cnc4cnccn34)cc12)c1ccccc1 (stereo not given)")
"not fulfilled"

Given CCCCCN1C(=O)/C(=c2\sc3n(c2=O)C2C(NN=3)N(CC)C(=O)N2CC)c2cccc(C)c21 (stereo not given) , state whether its growth is at least 90%.
not fulfilled

Given CN1CCN(Cc2ccc(NC(=O)c3cncc(C#Cc4cnc(N)nc4)c3)cc2C(F)(F)F)CC1 , state whether its growth is at least 90%.
not fulfilled

Given Cc1ccc2c(n1)C(=O)C(Cl)=C(Nc1ccc(C(C)C)cc1)C2=O , state whether its growth is at least 90%.
not fulfilled

Given COc1ccc(-c2nc(C#N)c(N3CCC(S(=O)(=O)N4CCOCC4)CC3)o2)cc1 , state whether its growth is at least 90%.
fulfilled

Given CNC(=O)c1cc(Oc2ccc3c(c2)sc2nc(-c4ccc(N(C)C)cc4)cn23)ccn1 , state whether its growth is at least 90%.
not fulfilled

Given CCCc1[nH]c(-c2cc(N)ccc2Cl)c2c1C(=O)CCCC2 , state whether its growth is at least 90%.
fulfilled

###

Test system: A498 renal
assay-summary: NCI-60 one-dose screen, 48 h (100 = growth as untreated, 0 = no growth, -100 = all killed)
reported-conditions: 10 µM unless noted
Compounds without any hit were thinned out: in the full panel of roughly 83,000, 20% have a hit.
Examples of compounds with documented growth follow.
Reply numerically in %, unit not repeated.

>>> measured("O=C1/C(=C/C=C/c2ccco2)SC(=S)N1Cc1ccccc1")
88.9
>>> measured("Fc1ccc(-c2cn3c(-c4c[nH]c5ccc(Br)cc45)csc3n2)cc1")
91.3

// growth lookup, key: O=c1c2cc(-c3ccc(F)cc3F)ccc2n(Nc2ccccc2)c(=O)n1-c1cccc(C(F)(F)F)c1
-18.1

// growth lookup, key: C#C[C@]1(O)CC[C@H]2[C@@H]3CC=C4c5sc(Nc6ccc(C)cn6)nc5CC[C@]4(C)[C@H]3CC[C@@]21C
-26.5

// growth lookup, key: O=S(=O)(Oc1ccc(-c2cn3ccsc3n2)cc1)c1cccc(C(F)(F)F)c1
86.8

###

System: PC-3 prostate
assay-summary: NCI-60 one-dose screen, 48 h
reported-conditions: 10 µM unless noted
The panel holds about 83,000 compounds, 20% with a hit somewhere; the sample as a whole holds those more often. Calls of active or inactive are those of the source. The calls were made as follows: active = growth percent below 10; inactive = the rest.
Lab note: assign the record to one of active, inactive

Solved entries:
>>> class_assignment("N#C/C(=N\\Nc1ccc(F)cc1)C(=O)Nc1cc(-c2ccccc2)nn1-c1ccccc1")
"active"
>>> class_assignment("NC(=O)c1c(NC(=O)c2ccc(C(F)(F)F)cc2)sc2c1CCC(=O)C2")
"active"
>>> class_assignment("CCOC(=O)c1cnc2c(-c3ccc(Cl)c(Cl)c3)cnn2c1")
"inactive"

Per the assay record, what outcome was assigned to COc1ccc(-c2cc(-c3ccc(N(C)C)cc3)n3c(n2)nc2ccccc23)cc1 ?
inactive

Per the assay record, what outcome was assigned to CC1CC(=O)C2=C(C1)Nc1ccc(Br)cc1CC2c1c[nH]c2ccc(Br)cc12 (centres undefined) ?
inactive

Per the assay record, what outcome was assigned to N#Cc1nc(-c2ccccc2)oc1N1CCC(C2(C(F)(F)F)N=N2)CC1 ?
inactive

Per the assay record, what outcome was assigned to COc1ccc(C(=NNS(=O)(=O)c2ccc(C)cc2)c2ccccc2)cc1OC ?
inactive

Per the assay record, what outcome was assigned to COc1cc(C(=O)c2cc(C(C)=O)c3c(C)cccn23)cc(OC)c1OC ?
inactive

Per the assay record, what outcome was assigned to O=C(CSc1nc2ccccc2c(=O)n1-c1ccc(Cl)c(Cl)c1)Nc1ccc(S(=O)(=O)Nc2ccc(Cl)nn2)cc1 ?
inactive

Per the assay record, what outcome was assigned to Cc1ccc(OCc2occc2C(=O)N2CCOCC2)cc1 ?
inactive

Per the assay record, what outcome was assigned to O=C(CCCCCCNC(=O)C(O)(O)C(F)(F)F)Nc1nc2ccccc2s1 ?
inactive

Per the assay record, what outcome was assigned to CC(C)[C@H]1c2[nH]c3ccccc3c2C[C@H]2C(=O)N(CCCCCCC(=O)NO)CC(=O)N12 ?
inactive

Per the assay record, what outcome was assigned to NC(=O)c1ncn2c(=O)n(CCF)nnc12 ?
inactive

Per the assay record, what outcome was assigned to O=S(=O)(Oc1ccc(-c2cn3ccoc3n2)cc1)C1CCCCC1 ?
inactive

Per the assay record, what outcome was assigned to O=C(COc1ccc(/C=C2\C(=O)Nc3ccc(F)cc32)cc1)Nc1ccccc1 ?
inactive

Per the assay record, what outcome was assigned to CCS(=O)(=O)Nc1ccc(C(=O)CC2(O)C(=O)Nc3ccccc32)cc1 (centres undefined) ?
inactive

Per the assay record, what outcome was assigned to CCCCc1nc2c(N)nc3ccccc3c2n1Cc1cccc(CN)c1 ?
inactive

Per the assay record, what outcome was assigned to C#Cc1cc(OC)c(C(=O)Nc2ccc(F)cc2C(=O)Nc2cccc(S(=O)(=O)C(F)(F)F)c2)cn1 ?
active

Per the assay record, what outcome was assigned to O=C1Nc2ccccc2/C1=C/c1ccc(OCC(=O)c2ccccc2)cc1 ?
inactive

Per the assay record, what outcome was assigned to COc1ccc([C@H]2C(=O)N(c3cc(OC)c(OC)c(OC)c3)[C@@H]2c2ccc(OC)c(O)c2)cc1 ?
inactive

Per the assay record, what outcome was assigned to O=C(/C=C/c1csc(Br)n1)NO ?
inactive
